Where do the numbers come from? From ChEMBL document CHEMBL3856283.

# maps each entry to its IC50
# ASSAY_NOTES: Antiproliferative activity against human K562 cells harboring BCR-ABL assessed as inhibition of cell viability after 72 hrs by CCK8-based colorimetric assay
# Format: functional
# EXPERIMENTAL_SETUP: K562, 72 h
Enter your answer as a number in µM; do not include the unit.

{"columns": ["STRUCTURE_NOTATION", "ASSAY_VALUE"],
 "data": [
  ["COC(=O)c1ccc(N2CCN(C)CC2)c(NC(=O)c2ccc(F)c([N+](=O)[O-])c2)c1", 57.1]
]}

Exam item: Name the reported IC50 value associated with the compound COC(=O)c1ccc(N2CCN(C)CC2)c(NC(=O)c2cc([N+](=O)[O-])c(F)c(C)c2Cl)c1
Marked response: 17.2

Exam item: Next compound: Cc1c(F)c([N+](=O)[O-])cc(C(=O)Nc2cc(C(=O)Oc3ccccc3)ccc2N2CCN(C)CC2)c1Cl
Marked response: 15.7

Exam item: Next compound: CCC(CC)(NC(=O)C(C)C)C(=O)N[C@@H](CCCNC(=N)N)C(=O)NC1(C(=O)NC(c2ccc(F)cc2)c2ccc(F)cc2)CCCC1
Marked response: 37.8

Exam item: Next compound: CC(C)OC(=O)c1ccc(N2CCN(C)CC2)c(NC(=O)c2ccc(F)c([N+](=O)[O-])c2)c1
Marked response: 58

Exam item: Next compound: Cc1c(F)c(N)cc(C(=O)Nc2cc(C(=O)Oc3ccccc3)ccc2N2CCN(C)CC2)c1Cl
Marked response: 33.4

Exam item: Next compound: CCOC(=O)c1ccc(N2CCN(C)CC2)c(NC(=O)c2ccc(F)c(C)c2Cl)c1
Marked response: 90.7

Exam item: Next compound: Cc1c(F)ccc(C(=O)Nc2cc(C(=O)Oc3ccccc3)ccc2N2CCN(C)CC2)c1Cl
Marked response: 53.9

Exam item: Next compound: CN1CCN(c2ccc(C(=O)Oc3ccccc3)cc2NC(=O)c2ccc(F)c([N+](=O)[O-])c2)CC1
Marked response: 11.6
